assay: NCI Yeast Anticancer Drug Screen. Data for the cln2 rad14 strain (AID 165);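 further: 0% = growth equal to vehicle treated cultures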; conditions: S. cerevisiae cln2 rad14 strain, at 50.0 µM, active compounds read high
About 79,000 compounds went through this panel and 15% of them were active in at least one assay; those are over-represented in the sample as a whole.
growth inhibition values for the molecules below.
Respond numerically; units are % and should not be typed.

The molecule COc1cc2c(cc1OC)C(Cl)C(c1ccc(F)cc1)=C2Cl (stereo unspecified) showed growth inhibition equal to 10.4

The molecule CCC(=O)c1ccc2ccc3ccccc3c2c1 showed growth inhibition equal to -7.25

The molecule CCCCCc1ccc2cc(C(=O)O)[nH]c2c1 showed growth inhibition equal to 97.8

The molecule CCCCCCCCCCCC1=NCCN1CCNCCCC showed growth inhibition equal to 97.3

The molecule Cc1ccc(C(=Nc2ccccc2)N=P(c2ccccc2)(c2ccccc2)c2ccccc2)cc1 showed growth inhibition equal to 89.5

The molecule Cc1cccc(C)c1N1C(=O)C2Nc3ccccc3SC2C1=O (stereo unspecified) showed growth inhibition equal to 95.8

---

test: NCI Yeast Anticancer Drug Screen. Data for the sgs1 mgt1 strain (AID 161);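 further: 0% = growth of cultures given vehicle only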; details: S. cerevisiae sgs1 mgt1 strain, at 5.0 µM (retest, dose inferred, filed as 0.5), active compounds read high
This is part of a sample that, as a whole, favours compounds with a hit. Of some 79,000 tested, about 15% had one in any assay.
attribute-measured: growth inhibition (%)
Respond numerically; units are % and should not be typed.

Some molecules with known growth inhibition results, for comparison:
The molecule NC1CCCCC1N.O=S(=O)([O-])CCCN1CCN(CCO)CC1.O=S(=O)([O-])CCCN1CCN(CCO)CC1.[Pt+4] showed growth inhibition equal to 12

The molecule CC(C)(C)c1ccc(O)c(C2CCCCC2)c1 showed growth inhibition equal to -1

The molecule CCN(CC)CC(O)CNc1ccc(C)c2sc3ccccc3c(=O)c12 (stereo not given) showed growth inhibition equal to 28

***
The molecule O=C(NNC(=O)c1cccc(C(=O)NNC(=O)c2ccc(Cl)c(Cl)c2)n1)c1ccc(Cl)c(Cl)c1 showed growth inhibition equal to 47

The molecule CCCCCCCCCCCCCC(=O)OCC[N+](C)(C)C showed growth inhibition equal to 41

---

experiment: NCI Yeast Anticancer Drug Screen. Data for the sgs1 mgt1 strain (AID 161);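 further: 0% = growth of cultures given vehicle only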; settings: S. cerevisiae sgs1 mgt1 strain, at 50.0 µM, active compounds read high
This is part of a sample that, as a whole, favours compounds with a hit. Of some 79,000 tested, about 15% had one in any assay.
attribute-measured: growth inhibition (%)
Respond numerically; units are % and should not be typed.

Some molecules with known growth inhibition results, for comparison:
The molecule C/C=C(\C)C(=O)O[C@@H]1CC(C)(C)CC2C3=CCC4[C@]56CC[C@](O)(OC5)C(C)(C)C6CC[C@@]4(C)C3(C)CC[C@]21C(=O)O (stereo not given in full) showed growth inhibition equal to 87.2

The molecule C[N+](C)(C)CCC(=O)c1ccco1 showed growth inhibition equal to 99.5

***
The molecule CC(C)(C)c1ccc(OC(=O)Nc2ccc(Cl)cc2[N+](=O)[O-])c(Br)c1 showed growth inhibition equal to 68.5

The molecule Clc1ccc2nc3c(c(N4CCOCC4)c2c1)CCCC3 showed growth inhibition equal to 99.2

The molecule CNC(=S)N/N=C/c1nccc(-c2ccccc2)c1C showed growth inhibition equal to 41.8

---

experiment: NCI Yeast Anticancer Drug Screen. Data for the cln2 rad14 strain (AID 165);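 further: 0% = growth equal to vehicle treated cultures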; details: S. cerevisiae cln2 rad14 strain, at 5.0 µM (retest, dose inferred, filed as 0.5), active compounds read high
This is part of a sample that, as a whole, favours compounds with a hit. Of some 79,000 tested, about 15% had one in any assay.
Lab note: anything with growth inhibition at or over 20% counts as fulfilled; the rest go in not fulfilled.

Prompt: Could you tell me if the measured growth inhibition of CCC(=O)OCC(=O)c1ccc(-c2ccccc2)cc1 reaches 20% or more?
Response: fulfilled

Prompt: Could you tell me if the measured growth inhibition of C=C1C(=O)OC2C/C(C)=C/CC/C(C)=C/CCC3(COC(C)=O)OC3CC12 (stereo not given) reaches 20% or more?
Response: not fulfilled

Prompt: Could you tell me if the measured growth inhibition of O=C1c2cccnc2-c2nccc3c2c1nc1cc(Br)ccc13 reaches 20% or more?
Response: fulfilled

Prompt: Could you tell me if the measured growth inhibition of CCOC(=O)/C(=C/c1ccccn1)C(=O)c1ccccc1 reaches 20% or more?
Response: fulfilled

Prompt: Could you tell me if the measured growth inhibition of CN(C)c1nc(NNS(=O)(=O)c2ccc(N)cc2)nc(N(C)C)n1 reaches 20% or more?
Response: not fulfilled

***
Prompt: Could you tell me if the measured growth inhibition of C[C@@]12C(=O)OC(=O)[C@]1(C)[C@H]1CC[C@@H]2O1 reaches 20% or more?
Response: fulfilled

Prompt: Could you tell me if the measured growth inhibition of Cc1c2ccnc(C(N)=O)c2c(C)c2c1[nH]c1ccccc12 reaches 20% or more?
Response: not fulfilled

---

test: NCI Yeast Anticancer Drug Screen. Data for the mlh1 rad18 strain (AID 175); conditions: S. cerevisiae mlh1 rad18 strain growth inhibition; at 50.0 µM (retest, dose inferred, filed as 5.0); active compounds read high
About 79,000 compounds went through this panel and 15% of them were active in at least one assay; those are over-represented in the sample as a whole.
Lab note: anything with growth inhibition at or over 90% counts as yes; the rest go in no.

Look over these answered cases.
Prompt: Could you tell me if the measured growth inhibition of CCCCCCCCCCCCCCCCCCOP(=O)([O-])OC1CC[N+](C)(C)CC1 reaches 90% or more?
Response: yes

Prompt: Could you tell me if the measured growth inhibition of O=C1c2ccc3ccccc3c2CN2C(=O)CCC12 (stereo unspecified) reaches 90% or more?
Response: no

Prompt: Could you tell me if the measured growth inhibition of CCCCCC(=O)/C=C/c1ccc(C)cc1 reaches 90% or more?
Response: no

Prompt: Could you tell me if the measured growth inhibition of COC(=O)c1cccc2cccc(C(=O)Nc3ccc(Cl)cc3)c12 reaches 90% or more?
Response: yes

Prompt: Could you tell me if the measured growth inhibition of CC(=O)Nc1ccc2c(c1)C(=O)c1cccc(F)c1-2 reaches 90% or more?
Response: no

Continue with the compound presented below.
Prompt: Could you tell me if the measured growth inhibition of Cc1cc(Cl)c2c(c1)C(=N/O)/C(=C\c1ccco1)O2 reaches 90% or more?
Response: yes

---

growth inhibition values for the compounds below.
experiment: NCI Yeast Anticancer Drug Screen. Data for the sgs1 mgt1 strain (AID 161);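 further: 0% = growth of cultures given vehicle only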; settings: S. cerevisiae sgs1 mgt1 strain, at 50.0 µM, active compounds read high
About 79,000 compounds went through this panel and 15% of them were active in at least one assay; those are over-represented in the sample as a whole.
Respond numerically; units are % and should not be typed.

Some compounds with known growth inhibition results, for comparison:
The compound O=C1C=CC(=O)c2c1oc1ccccc21 showed growth inhibition equal to 16.2

The compound O=C1NC(c2cccc3ccccc23)Nc2ccc(Cl)cc21 (configuration not stated) showed growth inhibition equal to 83

***
The compound CCCCCCN(CCCCCC)CC(O)c1cc(-c2ccccc2)nc2c(O)cccc12 (configuration not stated) showed growth inhibition equal to 93.8

The compound O=C1C(c2c[nH]c3ccc(Br)cc23)=Nc2ccc(Br)cc21 showed growth inhibition equal to 85.5

The compound COC1(OC)CNC(C(=O)O)C1 (configuration not stated) showed growth inhibition equal to 18.2

The compound O=c1[nH]c2c([N+](=O)[O-])cc(Cl)cc2nc1/C=C(\O)c1ccccc1 showed growth inhibition equal to 66.8

The compound CC(=O)Nc1nnc(C)s1 showed growth inhibition equal to -4.4

The compound COC(=O)CCC(NC(=S)N/N=C/c1ccccn1)C(=O)OC (configuration not stated) showed growth inhibition equal to 57.4

The compound COc1ccc2nc3cc(Cl)ccc3c(NCCNCCCNC(=O)c3cc(-c4ccccc4)nc4ccccc34)c2c1 showed growth inhibition equal to 95.2

The compound CC1CN(CC(O)c2ccc(Br)cc2)CC(C)O1 (configuration not stated) showed growth inhibition equal to 66.5

The compound O=C(O/N=C1/CCCC/C1=C\c1ccccc1)c1ccccc1 showed growth inhibition equal to 85.8

The compound N#CSCC(=O)c1ccc(Cl)cc1 showed growth inhibition equal to 92.5

---

Test: NCI Yeast Anticancer Drug Screen. Data for the mlh1 rad18 strain (AID 175)
Conditions: S. cerevisiae mlh1 rad18 strain growth inhibition; at 5.0 µM (retest, dose inferred, filed as 0.5); active compounds read high
Description: Growth inhibition of yeast strains with defined genetic alterations is measured as a screen for potential anti-cancer activity. Selected strains with alterations in DNA damage repair or cell cycle control were exposed to compounds and growth inhibition was measured relative to vehicle treated controls. The strain used in this assay is mlh1 rad18
The panel holds about 79,000 compounds, 15% with a hit somewhere; the sample as a whole holds those more often.
growth inhibition values for the molecules below.
Respond numerically; units are % and should not be typed.

The molecule CCCNC(=O)OCc1ccc(NCCN(CC)CC)c2c(=O)c3ccccc3sc12 showed growth inhibition equal to 3

The molecule O=C1C(c2ccccc2)=[N+]([O-])c2ccccc21 showed growth inhibition equal to 4

The molecule CC[n+]1c(/C=C/c2cc(C(=O)OC)n3c2sc2ccccc23)sc2ccccc21 showed growth inhibition equal to 61

The molecule O=C1Nc2ccccc2/C1=C\c1ccccn1 showed growth inhibition equal to 49

The molecule CC(CO)(Nc1ccc([N+](=O)[O-])cc1[N+](=O)[O-])C(=O)O (stereo unspecified) showed growth inhibition equal to 6
